Attribution: ChEMBL document CHEMBL5291721

Reported values: AC50 for Adenosine receptor A3 (Homo sapiens), one per item.

Enquiry: Param item = Cc1cn(-c2cc(NC(=O)c3ccc(C)c(Nc4nccc(-c5cnccn5)n4)c3)cc(C(F)(F)F)c2)cn1 [RADOTINIB] ; retrieve measured AC50.
Return: 3.3 µM

Enquiry: What value of AC50 has been recorded for this entry: CC1CC(OC(=O)C(O)c2ccccc2)CC(C)(C)C1 (stereo unspecified) [CYCLANDELATE]
Return: > 10 µM

Enquiry: // AC50 lookup, key: CC(C)(Oc1ccc(Cl)cc1)C(=O)OCCOC(=O)c1cccnc1 [ETOFIBRATE]
Return: > 30 µM

Enquiry: Record request: AC50 value, item CC1NCCOC1c1ccccc1 (stereo unspecified) [PHENMETRAZINE]
Return: > 30 µM

Enquiry: Endpoint output: AC50 of N=C(N)NC(=O)c1nc(Cl)c(N)nc1N [AMILORIDE] . Value?
Return: > 30 µM

Enquiry: Value lookup for AC50; key = CCOC(=O)[C@H](CCc1ccccc1)N[C@@H](C)C(=O)N1Cc2ccccc2C[C@H]1C(=O)O
Return: > 30 µM
